Here the recorded pKi is given for each entry.
EXPERIMENTAL DETAILS: Compound was tested in vitro for binding affinity for 5-hydroxytryptamine 1C receptor
pKi: −log10 of the molar value.

[
  {
    "SUBSTANCE SMILES": "Cc1ccc2c(c1O)C[C@@H](C1CCCCC1)O[C@H]2CN",
    "pKi": 7.24
  },
  {
    "SUBSTANCE SMILES": "NC[C@@H]1O[C@H](c2ccccc2)Cc2c1ccc(Br)c2O",
    "pKi": 6.70
  }
]
